Test system: eggplants
testSummary: Test Example 14: phytotoxicity test on eggplants
Type: in vivo, eggplant
conditionsUsed: 300 ppm spray, Repetition A, index 0 (no phytotoxicity) to 10 (plant death)
Eggplant; 6- to 7-leaf stage After 14 days Leaf Phytotoxicity index overview
parameterMeasured: Eggplant; 6- to 7-leaf stage After 14 days Leaf Phytotoxicity index

CCN(Oc1cc(Br)cc(C(F)(F)F)c1)C(=O)NC(C)(C)C(=O)NCC(F)(F)F
0
CCN(Oc1cc(Br)nc(Br)c1)C(=O)NC(C)(C)C(=O)NCC(F)(F)F
2
CCN(Oc1ccnc(C(F)(F)F)c1)C(=O)NC(C)(C)C(=O)NCC(F)(F)F
2
CCN(Oc1cc(Cl)cc(Br)c1)C(=O)NC(C)(C)C(=O)NCC(F)(F)F
3

---

System: eggplants
testSummary: Test Example 14: phytotoxicity test on eggplants
Format: in vivo, eggplant
conditionsUsed: 300 ppm spray, Repetition B, index 0 (no phytotoxicity) to 10 (plant death)
parameterMeasured: Eggplant; 6- to 7-leaf stage After 14 days Leaf Phytotoxicity index

CCN(Oc1cc(Br)nc(Br)c1)C(=O)NC(C)(C)C(=O)NCC(F)(F)F
2
CCN(Oc1cc(Br)cc(C(F)(F)F)c1)C(=O)NC(C)(C)C(=O)NCC(F)(F)F
0
CCN(Oc1ccnc(C(F)(F)F)c1)C(=O)NC(C)(C)C(=O)NCC(F)(F)F
2
CCN(Oc1cc(Cl)cc(Br)c1)C(=O)NC(C)(C)C(=O)NCC(F)(F)F
3

The measurements presented in this section are drawn from patent US11044911B2.
